This section presents compounds with their documented IC50 values.
- Test system: 596521-263-R-J1-PDC complex spheroid growth;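 note: spheroids exposed to compounds for 7 days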
- experimentalDetails: Anticancer human tumor 596521-263-R-J1-PDC patient-derived soft tissue sarcoma cell line growth inhibition [Asc]
- statedConditions: curve of first compound; second compound 0.0316 µM

Here is how some compounds turned out for IC50.
compound	propertyLabel	reported
O=C(c1cc(Cc2n[nH]c(=O)c3ccccc23)ccc1F)N1CCN(C(=O)C2CC2)CC1 + CNC(C)C(=O)NC1CN(S(=O)(=O)c2cccc(S(=O)(=O)N3CCC4CCC(C(=O)NC(c5ccccc5)c5ccccc5)N4C(=O)C(NC(=O)C(C)NC)C3)c2)CCC2CCC(C(=O)NC(c3ccccc3)c3ccccc3)N2C1=O	IC50	4760 nM
Cc1nc(N2CCC3(CC2)COC(C)C3N)c(CO)nc1Sc1ccnc(N)c1Cl (stereo not drawn) + CNC(C)C(=O)NC1CN(S(=O)(=O)c2cccc(S(=O)(=O)N3CCC4CCC(C(=O)NC(c5ccccc5)c5ccccc5)N4C(=O)C(NC(=O)C(C)NC)C3)c2)CCC2CCC(C(=O)NC(c3ccccc3)c3ccccc3)N2C1=O	IC50	> 3000 nM
O=C(c1cc(Cc2n[nH]c(=O)c3ccccc23)ccc1F)N1CCN(C(=O)C2CC2)CC1 + Cc1c(S(C)(=O)=O)c(-c2cc(F)cc(N3CCN(c4ccc(NS(=O)(=O)c5ccc(NC(CCN6CCC(C(=O)OCCCP(=O)(O)O)CC6)CSc6ccccc6)c(S(=O)(=O)C(F)(F)F)c5)cc4)CC3)c2)c(-c2ccc(Cl)cc2)n1C(C)C	IC50	> 10000 nM
CCN1CCN(Cc2ccc(Nc3ncc(F)c(-c4cc(F)c5nc(C)n(C(C)C)c5c4)n3)nc2)CC1 + Cc1c(S(C)(=O)=O)c(-c2cc(F)cc(N3CCN(c4ccc(NS(=O)(=O)c5ccc(NC(CCN6CCC(C(=O)OCCCP(=O)(O)O)CC6)CSc6ccccc6)c(S(=O)(=O)C(F)(F)F)c5)cc4)CC3)c2)c(-c2ccc(Cl)cc2)n1C(C)C	IC50	> 1000 nM
NC1CCC(NC2CC2c2ccccc2)CC1 (stereo not drawn) + Cc1c(S(C)(=O)=O)c(-c2cc(F)cc(N3CCN(c4ccc(NS(=O)(=O)c5ccc(NC(CCN6CCC(C(=O)OCCCP(=O)(O)O)CC6)CSc6ccccc6)c(S(=O)(=O)C(F)(F)F)c5)cc4)CC3)c2)c(-c2ccc(Cl)cc2)n1C(C)C	IC50	> 100 nM

// lookup IC50 for Cn1ncnc1[C@H]1c2n[nH]c(=O)c3cc(F)cc(c23)N[C@@H]1c1ccc(F)cc1 + Cc1c(S(C)(=O)=O)c(-c2cc(F)cc(N3CCN(c4ccc(NS(=O)(=O)c5ccc(NC(CCN6CCC(C(=O)OCCCP(=O)(O)O)CC6)CSc6ccccc6)c(S(=O)(=O)C(F)(F)F)c5)cc4)CC3)c2)c(-c2ccc(Cl)cc2)n1C(C)C > 100 nM

Also, C#Cc1c(F)ccc2cc(O)cc(-c3ncc4c(N5CC6CCC(C5)N6)nc(OCC56CCCN5CC(F)C6)nc4c3F)c12 (stereo not drawn) + Cc1c(S(C)(=O)=O)c(-c2cc(F)cc(N3CCN(c4ccc(NS(=O)(=O)c5ccc(NC(CCN6CCC(C(=O)OCCCP(=O)(O)O)CC6)CSc6ccccc6)c(S(=O)(=O)C(F)(F)F)c5)cc4)CC3)c2)c(-c2ccc(Cl)cc2)n1C(C)C please. > 10000 nM

Also, Cc1nc(N2CCC3(CC2)COC(C)C3N)c(CO)nc1Sc1ccnc(N)c1Cl (stereo not drawn) + Cc1c(S(C)(=O)=O)c(-c2cc(F)cc(N3CCN(c4ccc(NS(=O)(=O)c5ccc(NC(CCN6CCC(C(=O)OCCCP(=O)(O)O)CC6)CSc6ccccc6)c(S(=O)(=O)C(F)(F)F)c5)cc4)CC3)c2)c(-c2ccc(Cl)cc2)n1C(C)C please. > 3000 nM

Also, NC(=O)C(=Cn1cnc(-c2cc(C(F)(F)F)cc(C(F)(F)F)c2)n1)c1cncnc1 + Cc1c(S(C)(=O)=O)c(-c2cc(F)cc(N3CCN(c4ccc(NS(=O)(=O)c5ccc(NC(CCN6CCC(C(=O)OCCCP(=O)(O)O)CC6)CSc6ccccc6)c(S(=O)(=O)C(F)(F)F)c5)cc4)CC3)c2)c(-c2ccc(Cl)cc2)n1C(C)C please. 27.2 nM

Also, C#Cc1c(F)ccc2cc(O)cc(-c3ncc4c(N5CC6CCC(C5)N6)nc(OCC56CCCN5CC(F)C6)nc4c3F)c12 (stereo not drawn) + CNC(C)C(=O)NC1CN(S(=O)(=O)c2cccc(S(=O)(=O)N3CCC4CCC(C(=O)NC(c5ccccc5)c5ccccc5)N4C(=O)C(NC(=O)C(C)NC)C3)c2)CCC2CCC(C(=O)NC(c3ccccc3)c3ccccc3)N2C1=O please. > 10000 nM

Also, NC(=O)C(=Cn1cnc(-c2cc(C(F)(F)F)cc(C(F)(F)F)c2)n1)c1cncnc1 + CNC(C)C(=O)NC1CN(S(=O)(=O)c2cccc(S(=O)(=O)N3CCC4CCC(C(=O)NC(c5ccccc5)c5ccccc5)N4C(=O)C(NC(=O)C(C)NC)C3)c2)CCC2CCC(C(=O)NC(c3ccccc3)c3ccccc3)N2C1=O please. 21.4 nM

Also, O=C(c1ccc(F)c(F)c1Nc1ccc(I)cc1F)N1CC(O)([C@@H]2CCCCN2)C1 + Cc1c(S(C)(=O)=O)c(-c2cc(F)cc(N3CCN(c4ccc(NS(=O)(=O)c5ccc(NC(CCN6CCC(C(=O)OCCCP(=O)(O)O)CC6)CSc6ccccc6)c(S(=O)(=O)C(F)(F)F)c5)cc4)CC3)c2)c(-c2ccc(Cl)cc2)n1C(C)C please. 349 nM

Also, Cn1ncnc1[C@H]1c2n[nH]c(=O)c3cc(F)cc(c23)N[C@@H]1c1ccc(F)cc1 + CNC(C)C(=O)NC1CN(S(=O)(=O)c2cccc(S(=O)(=O)N3CCC4CCC(C(=O)NC(c5ccccc5)c5ccccc5)N4C(=O)C(NC(=O)C(C)NC)C3)c2)CCC2CCC(C(=O)NC(c3ccccc3)c3ccccc3)N2C1=O please. > 100 nM
